# Experimental system: T1, alpha-s1 casein from Bos taurus
# T1 chain: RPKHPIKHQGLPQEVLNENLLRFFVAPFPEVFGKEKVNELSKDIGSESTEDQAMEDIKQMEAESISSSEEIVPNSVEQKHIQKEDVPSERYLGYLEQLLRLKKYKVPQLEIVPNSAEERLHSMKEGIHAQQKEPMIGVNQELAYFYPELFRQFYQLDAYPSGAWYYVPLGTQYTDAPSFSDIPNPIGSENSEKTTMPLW
Quantity measured: αs1 CN, 6 hours, 11° C.
Give the value; after it, write the unit.

Exercise: Which measured αs1 CN, 6 hours, 11° C. value corresponds to camel chymosin variant #145 (F223I) (protein) GKVAREPLTSYLDSQYFGKIYIGTPPQEFTVVFDTGSSDLWVPSIYCKSNVCKNHHRFDPRKSSTFRNLGKPLSIHYGTGSMEGFLGYDTVTVSNIVDPNQTVGLSTEQPGEVFTYSEFDGILGLAYPSLASEYSVPVFDNMMDRHLVARDLFSVYMDRNGQGSMLTLGAIDPSYYTGSLHWVPVTLQQYWQFTVDSVTINGVAVACVGGCQAILDTGTSVLIGPSSDILKIQMAIGATENRYGEFDVNCGNLRSMPTVVFEINGRDYPLSPSAYTSKDQGFCTSGFQGDNNSELWILGDVFIREYYSVFDRANNRVGLAKAI ?
Solution: 1.57e+07 Volume

Taken from patent US20150140169.
